B1: Caulobacter ParB omega fusion; a variant is named by its letters at X, in order, B8GW30 (parent)
chain: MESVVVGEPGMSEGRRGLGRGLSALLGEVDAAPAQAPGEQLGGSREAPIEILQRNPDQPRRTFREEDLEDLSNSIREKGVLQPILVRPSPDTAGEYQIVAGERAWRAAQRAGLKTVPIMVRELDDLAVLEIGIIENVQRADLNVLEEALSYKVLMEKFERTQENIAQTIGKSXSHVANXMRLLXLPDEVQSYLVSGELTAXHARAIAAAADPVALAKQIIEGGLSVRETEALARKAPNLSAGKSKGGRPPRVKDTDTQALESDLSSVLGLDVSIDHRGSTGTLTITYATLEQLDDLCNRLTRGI

- Variants of: B1
- assay: one-hybrid fitness for binding parS DNA (scaled: cognate 1, non-cognate 0); higher = stronger binding
- measurement-setup: with parS DNA site
Whole data set: some 81,000 sequences, median “one-hybrid fitness for binding parS DNA” near -0.17, cut for the highest 2% near 0.51. Many of the other results were omitted from the sample, so the highest values are more common in it than they were.
Reported one-hybrid fitness for binding parS DNA values are given for each entry in this list.
// return just the number, without any unit appended

Solved entries:
[[record]]
mutation_notation = "RRRP"
endpoint_result = 0.203

[[record]]
mutation_notation = "RQLF"
endpoint_result = 0.241

[[record]]
mutation_notation = "RYCH"
endpoint_result = 0.223


Consider the additional variant presented here.
# one-hybrid fitness for binding parS DNA lookup, item `RRRS`
0.67
